# experiment-description: Electronic tongue analysis (Taste-Sensing System SA 402B)
# Parameters: unit not given here
# cond: sensor C00, peptide 1 mg/mL, reference solution 30 mM KCl + 0.3 mM tartaric acid as baseline, detection threshold 0, room temperature, four replicates, first measurement excluded
Ends that are not written are not given here.
measured-metric: Bitter
Respond numerically, and do not add a unit to the figure.

Solved cases below.
substance	Bitter
FEGDQDA [TaPep18]	3.77
EQPLQA [TaPep21]	3.66

As a next step, examine the substance that follows.
Value of Bitter reported for the substance EVGMQE [TaPep56] is 3.33
